experiment: Follow-up solubility assessment (cosolvent mixtures, surfactants); format: physicochemical; settings: Tween 80/water 30/70 % w/v, aqueous with cosolvent or surfactant or cyclodextrin, thermodynamic from solid; ibudilast conc. 75 mg/mL
recorded_metric: solubility (mg/mL)
Answers are plain numbers, in mg/mL.

solubility in this record for CC(C)C(=O)c1c(C(C)C)nn2ccccc12 [ibudilast] : 31.9

---

assay: Initial solubility screen with various excipients; format: physicochemical; details: aqueous with cosolvent or surfactant or cyclodextrin, thermodynamic from solid; Kolliphor HS 15 5% w/v; ibudilast conc. 25 mg/mL
recorded_metric: solubility (µg/mL)
One number for each entry, in µg/mL.

Lab note: `CC(C)C(=O)c1c(C(C)C)nn2ccccc12` gave solubility of 5640

---

assay: Initial solubility screen with various excipients; assay type: physicochemical; conditions: aqueous with cosolvent or surfactant or cyclodextrin, thermodynamic from solid; Kolliphor ELP 30% w/v; ibudilast conc. 25 mg/mL; fully dissolved after 24 h; solubility may be higher
recorded_metric: solubility at 24 h
A complete answer gives the number and then names the unit.

The recorded solubility at 24 h for `CC(C)C(=O)c1c(C(C)C)nn2ccccc12` is 28 mg/mL
